- ASSAYED TARGET: human μ-opioid receptor (Homo sapiens, UniProt P35372)
- Construct: expressed in transfected cells; host or cells: HEK-293 cells; membrane homogenates
- Sequence (P35372 whole entry): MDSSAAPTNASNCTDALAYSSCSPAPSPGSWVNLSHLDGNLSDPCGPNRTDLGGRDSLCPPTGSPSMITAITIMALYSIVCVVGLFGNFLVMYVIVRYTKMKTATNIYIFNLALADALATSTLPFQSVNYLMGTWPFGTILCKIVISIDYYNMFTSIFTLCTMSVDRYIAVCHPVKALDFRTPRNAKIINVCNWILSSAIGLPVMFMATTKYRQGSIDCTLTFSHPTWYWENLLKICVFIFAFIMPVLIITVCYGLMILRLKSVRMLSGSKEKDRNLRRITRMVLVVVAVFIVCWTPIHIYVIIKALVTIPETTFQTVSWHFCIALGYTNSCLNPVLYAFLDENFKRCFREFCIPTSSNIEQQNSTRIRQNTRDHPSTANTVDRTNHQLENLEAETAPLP
- EXPERIMENT SUMMARY: Radioligand binding assay, [3H]DAMGO, transfected HEK-293 cell membranes
- STATED CONDITIONS: calculated from the data in Table 12; Cheng Prusoff
pKi: −log10 of the molar value.

COMPOUND	pKi
CC(C)N[C@@H]1CCn2c(=O)[nH]c3cccc(c32)[C@H]1O (single isomer, unassigned) [6R,7R enantiomer, 6R,7R zilpaterol enantiomer]	3.89

----------
Record type: IC50 measurement. Applies to: human μ-opioid receptor (Homo sapiens, UniProt P35372)
ATTRIBUTE MEASURED: IC50 (µM)

COMPOUND	ASSAYED TARGET	VALUE OBSERVED
CC(C)N[C@H]1CCn2c(=O)[nH]c3cccc(c32)[C@@H]1O [6S,7S enantiomer, 6S,7S zilpaterol enantiomer]	human μ-opioid receptor (Homo sapiens, UniProt P35372)	17
CC(C)NC1CCn2c(=O)[nH]c3cccc(c32)C1O (racemic) [Racemic trans, reference compound]	human μ-opioid receptor (Homo sapiens, UniProt P35372)	31
CC(C)N[C@@H]1CCn2c(=O)[nH]c3cccc(c32)[C@H]1O (single isomer, unassigned) [6R,7R enantiomer, 6R,7R zilpaterol enantiomer]	human μ-opioid receptor (Homo sapiens, UniProt P35372)	320
